Target: T1, CD19 (UniProt P15391 20-556)
T1 chain: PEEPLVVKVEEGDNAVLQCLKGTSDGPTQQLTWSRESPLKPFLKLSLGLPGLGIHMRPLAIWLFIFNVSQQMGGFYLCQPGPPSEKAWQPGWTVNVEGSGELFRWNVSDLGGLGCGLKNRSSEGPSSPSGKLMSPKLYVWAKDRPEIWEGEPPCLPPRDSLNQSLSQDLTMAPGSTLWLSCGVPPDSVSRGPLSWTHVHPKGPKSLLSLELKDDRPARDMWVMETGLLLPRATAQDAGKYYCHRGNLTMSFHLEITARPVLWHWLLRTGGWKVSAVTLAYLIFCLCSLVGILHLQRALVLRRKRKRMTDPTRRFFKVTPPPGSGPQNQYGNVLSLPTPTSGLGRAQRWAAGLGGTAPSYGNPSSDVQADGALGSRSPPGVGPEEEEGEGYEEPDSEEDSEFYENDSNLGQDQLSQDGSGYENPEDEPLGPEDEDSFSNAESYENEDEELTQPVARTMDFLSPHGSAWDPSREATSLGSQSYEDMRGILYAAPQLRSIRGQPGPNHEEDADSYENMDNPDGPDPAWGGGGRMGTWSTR
Test: flow cytometry cell binding; FIG. 7
Reported Metric: pEC50
Lab note: report pEC50 as minus log10 of the concentration in molar units, number only.

Some solved cases for reference:
[[record]]
binder = "hFMCL2/H4b WT (antibody, V domains shown) VH: QVQLQESGPGLVKPSETLSVTCTVSGVSLPDYGVSWIRQPPGKGLEWLGVIWGSETTYYNPSLKSRLTISKDNSKNQVSLKMSSLTAADTAVYYCAKHYYYGGSYAMDYWGQGTLVTVSS VL: DIQMTQSPSSLSASVGDRVTITCRASQDISKYLNWYQQKPGKAPKLLIYHTSRLHSGVPSRFSGSGSGTDYTLTISSLQPEDFATYYCQQGATLPYTFGQGTKLEIK"
reported_metric = "pEC50"
observed = 8.27

[[record]]
binder = "hFMCL2c-LCNT/hFMCH4b (Fab, V domains shown) VH: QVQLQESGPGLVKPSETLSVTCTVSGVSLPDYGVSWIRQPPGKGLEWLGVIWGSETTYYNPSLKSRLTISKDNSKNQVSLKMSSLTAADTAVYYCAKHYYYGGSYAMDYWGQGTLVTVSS VL: DIQMTQSPSSLSASVGDRVTITCRASQDISKYLNWYQQKPGKAVKLLIYHTSRLHSGVPSRFSGSGSGTDYTLTISSLQPEDFATYFCQQGATLPYTFGQGTKLEIK"
reported_metric = "pEC50"
observed = 8.78

[[record]]
binder = "hFMCL2b-LCNT/hFMCH4b (Fab, V domains shown) VH: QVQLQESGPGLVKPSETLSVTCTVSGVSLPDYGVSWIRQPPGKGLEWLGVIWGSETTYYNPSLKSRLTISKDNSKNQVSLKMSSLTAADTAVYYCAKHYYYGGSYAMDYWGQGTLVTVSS VL: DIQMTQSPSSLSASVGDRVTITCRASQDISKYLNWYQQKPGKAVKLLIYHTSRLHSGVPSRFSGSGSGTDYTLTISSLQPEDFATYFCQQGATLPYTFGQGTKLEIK"
reported_metric = "pEC50"
observed = 8.64


Would you kindly look at the next entry?
Return value of pEC50 for input hFMCL2a-LCNT/hFMCH4b (Fab, V domains shown) VH: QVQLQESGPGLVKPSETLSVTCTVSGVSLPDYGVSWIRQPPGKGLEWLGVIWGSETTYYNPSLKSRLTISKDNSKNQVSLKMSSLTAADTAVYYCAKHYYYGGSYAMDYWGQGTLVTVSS VL: DIQMTQSPSSLSASVGDRVTITCRASQDISKYLNWYQQKPGKAVKLLIYHTSRLHSGVPSRFSGSGSGTDYTLTISSLQPEDFATYYCQQGATLPYTFGQGTKLEIK , no commentary.
8.61
